B1: Homeobox protein cut-like 1, residues 941 to 1008; numbered along this chain, P39880 (parent)
chain: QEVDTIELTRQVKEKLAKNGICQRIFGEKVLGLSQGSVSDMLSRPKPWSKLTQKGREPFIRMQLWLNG

Variants of: B1
Experiment: abundance fitness (aPCA) (normalised: wild type 0, dead -1); higher = more abundant; growth selection in yeast, the domain comes from the species named
Details: Homo sapiens
Where abundance fitness equals or exceeds -0.1, the correct label is Fulfilled; where it does not, the label is Not fulfilled.

Does P45T have a reported abundance fitness of at least -0.1?
Not fulfilled
